assay: Cytotoxicity against human Lipo cells by SRB assay; assay type: functional, cell-based
Recorded IC50 by entry

{"Chemical Smiles": "COC(=O)[C@@]1(C)CC[C@]2(C)CC[C@]3(C)C(=CC(=O)[C@@H]4[C@@]5(C)CC[C@H](O[C@@H]6O[C@@H](C)[C@H](O)[C@@H](O)[C@H]6O)C(C)(C)[C@@H]5CC[C@]43C)[C@@H]2C1", "Unit Annotation": "µM", "Qual": ">", "IC50": 30}
{"Chemical Smiles": "COC(=O)[C@@]1(C)CC[C@]2(C)CC[C@]3(C)C(=CC(=O)[C@@H]4[C@@]5(C)CC[C@H](O[C@@H]6O[C@H](CO)[C@H](O)[C@H](O)[C@H]6O)C(C)(C)[C@@H]5CC[C@]43C)[C@@H]2C1", "Unit Annotation": "µM", "Qual": "=", "IC50": 23.2}
{"Chemical Smiles": "COC(=O)[C@@]1(C)CC[C@]2(C)CC[C@]3(C)C(=CC(=O)[C@@H]4[C@@]5(C)CC[C@H](O[C@H]6O[C@@H](C)[C@H](O)[C@@H](O)[C@H]6O)C(C)(C)[C@@H]5CC[C@]43C)[C@@H]2C1", "Unit Annotation": "µM", "Qual": "=", "IC50": 28.4}
{"Chemical Smiles": "COC(=O)[C@@]1(C)CC[C@]2(C)CC[C@]3(C)C(=CC(=O)[C@@H]4[C@@]5(C)CC[C@H](O[C@@H]6OC[C@H](O)[C@H](O)[C@H]6O)C(C)(C)[C@@H]5CC[C@]43C)[C@@H]2C1", "Unit Annotation": "µM", "Qual": ">", "IC50": 30}
{"Chemical Smiles": "COC(=O)[C@@]1(C)CC[C@]2(C)CC[C@]3(C)C(=CC(=O)[C@@H]4[C@@]5(C)CC[C@H](O[C@H]6OC[C@@H](O)[C@@H](O)[C@@H]6O)C(C)(C)[C@@H]5CC[C@]43C)[C@@H]2C1", "Unit Annotation": "µM", "Qual": ">", "IC50": 30}
